# Tested system: 5-hydroxytryptamine receptor 1A (Rattus norvegicus, UniProt P19327); further: in other assays of this panel Not Active means under 50% inhibition at 10 µM
# Sequence (P19327 whole entry): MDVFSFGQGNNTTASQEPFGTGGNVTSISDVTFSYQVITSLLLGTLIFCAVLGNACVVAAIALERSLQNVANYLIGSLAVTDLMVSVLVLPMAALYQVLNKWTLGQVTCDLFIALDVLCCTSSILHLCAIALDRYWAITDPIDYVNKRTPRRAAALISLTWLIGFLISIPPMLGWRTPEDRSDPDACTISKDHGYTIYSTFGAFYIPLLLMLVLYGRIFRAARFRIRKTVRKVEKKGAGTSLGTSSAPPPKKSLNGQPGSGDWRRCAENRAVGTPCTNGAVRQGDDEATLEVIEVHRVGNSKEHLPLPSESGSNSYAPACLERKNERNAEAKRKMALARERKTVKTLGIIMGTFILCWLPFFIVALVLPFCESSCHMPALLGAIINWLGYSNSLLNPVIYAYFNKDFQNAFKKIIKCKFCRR
# Assay type: cell membranes, CHO-K1, Membrane
# Conditions: cho-k1
Reported property: IC50

TRANSPLATIN = Not Active
ZIRCONIUM(IV) CHLORIDE = Not Active
COBALTOUS CHLORIDE = Not Active
COLISTIN = Not Active

----------
# Assay procedure: DRUGMATRIX: Glutamate, NMDA, Agonism radioligand binding (ligand: [3H] CGP-39653)
# Format: cell membranes, Rattus norvegicus, Wistar, Cerebral cortex, Membrane
# Conditions: Not Active = under 50% inhibition at 10 µM
Reported property: IC50

Please review the following examples before continuing.
ClC(Cl)(Cl)Cl [CARBON TETRACHLORIDE] = Not Active
CN(C)CCC=C1c2ccccc2CCc2ccccc21 [AMITRIPTYLINE] = Not Active
Nc1cc(-c2ccncc2)c[nH]c1=O [INAMRINONE] = Not Active
O=C(O)CC(O)(CC(=O)O)C(=O)O [CITRIC ACID] = Not Active
O=c1c(-c2ccc(O)cc2)coc2cc(O)cc(O)c12 [GENISTEIN] = Not Active

Please report IC50 for every entry that follows.
1. C[C@H]1COc2c(N3CCN(C)CC3)c(F)cc3c(=O)c(C(=O)O)cn1c23.C[C@H]1COc2c(N3CCN(C)CC3)c(F)cc3c(=O)c(C(=O)O)cn1c23.O [LEVOFLOXACIN]
2. CO/N=C(\C(=O)N[C@@H]1C(=O)N2C(C(=O)O)=C(COC(C)=O)CS[C@H]12)c1csc(N)n1 [CEFOTAXIME]
3. NS(=O)(=O)c1cc(C2(O)NC(=O)c3ccccc32)ccc1Cl (stereo not drawn) [CHLORTHALIDONE]

Result block:
1. Not Active
2. Not Active
3. Not Active

Report IC50 for each item below.
1. CN(C)C(=O)Oc1cccc([N+](C)(C)C)c1.[Br-] [NEOSTIGMINE BROMIDE]
2. CN1C(=O)CN=C(c2ccccc2)c2cc([N+](=O)[O-])ccc21 [NIMETAZEPAM]
3. CC1CCC(NC(=O)N(CCCl)N=O)CC1 (stereo not drawn) [SEMUSTINE]
4. Cc1ccc(C(=O)c2ccc(CC(=O)O)n2C)cc1 [TOLMETIN]
5. CC(C)c1c(C(=O)Nc2ccccc2)c(-c2ccccc2)c(-c2ccc(F)cc2)n1CC[C@@H](O)C[C@@H](O)CC(=O)O [ATORVASTATIN]

Result block:
["Not Active", "Not Active", "Not Active", "Not Active", "Not Active"]

Required: IC50, one value per molecule below.
1. CN1CCN(CCCN2c3ccccc3Sc3ccc(C(F)(F)F)cc32)CC1 [TRIFLUOPERAZINE]
2. CC(O)(P(=O)(O)O)P(=O)(O)O [ETIDRONIC ACID]
3. Cc1cccc(C)c1NC(=O)C1CCCCN1C (stereo not drawn) [MEPIVACAINE]

Result block:
1. Not Active
2. Not Active
3. Not Active

Hi, could you look up IC50 for each item in my list?
1. O=C(O)c1cc(-c2ccc(F)cc2F)ccc1O [DIFLUNISAL]
2. C[C@]12C=CC(=O)C=C1CC[C@@H]1[C@@H]2C(=O)C[C@@]2(C)[C@H]1CC[C@]2(O)C(=O)CO [PREDNISONE]

Result block:
1. Not Active
2. Not Active
